system: P. falciparum stage V gametocytes; design: BacTiter-Glo ATP luminescence viability of purified stage V gametocytes in 384-well plates, per cent inhibition versus DMSO; conditions: 48 h, 5 µM; inhibitor
The whole screen tested about 13,000 compounds, of which about 3,200 (25%) showed an effect of 50% or more. This is one part of the list.
Measure: % Inhibition (%)
Please state the figure in %; there is no need to write the unit.

Solved cases (8 shown):
>>> experimental_value("CCCC(CNC(=O)c1cc2c(Cl)cc(Cl)cc2[nH]1)CNc1cc(=O)c2ccccc2[nH]1 (centres unmarked)")
-10.38
>>> experimental_value("COc1ccc2nccc([C@@H](O)CN3CCC(NCc4nc5cc(F)ccc5o4)CC3)c2c1")
-5.365
>>> experimental_value("COc1cc2c(Nc3ccc(Br)cc3F)ncnc2cc1OCC1CCN(C)CC1")
19.55
>>> experimental_value("C#CCNCc1ccc(-c2ccc(-c3nc4cc(C(F)(F)F)ccc4[nH]3)s2)cc1.O=C(O)C(F)(F)F")
-48.9
>>> experimental_value("CNCCCCCCc1ccc(CC(C)NCC(O)c2cccc(Cl)c2)cc1 (centres unmarked)")
95.63
>>> experimental_value("CC(C)CNc1c2c(nc3cnn(-c4c5c(nc6cn[nH]c46)CCCC5)c13)CCCC2")
-4.273
>>> experimental_value("Cc1cc(NC(=O)Nc2cccc(Cl)c2Cl)c2ccccc2n1")
10.53
>>> experimental_value("CC(C)C(=O)ONC1=NC(C)(C)N(OCCCOc2cc(Cl)c(Cl)cc2Cl)C(NOC(=O)C(C)C)=N1")
-4.555

Noted for Cn1c(=O)c(-c2c(Cl)cccc2Cl)cc2cnc(Nc3ccc(N4CCOCC4)cc3)nc21 : its % Inhibition reads -23.94

Entry O=C(Nc1cc2cc(-c3ccc(CN4CCCCC4)cc3)ccc2n2cnnc12)NC1CCCC1 ; % Inhibition = 63.39

====

Reported values of % Inhibition for individual entries
system: P. falciparum stage V gametocytes; parameters: BacTiter-Glo ATP luminescence viability of purified stage V gametocytes in 384-well plates, per cent inhibition versus DMSO; details: 48 h, 5 µM; inhibitor
The campaign covered roughly 13,000 compounds. About 3,200 (25%) showed an effect of 50% or more. This is one part of the list.
Quick note: give the figure in %, leave out the unit.

Solved entries (count: 3):
>>> experimental_value("O=C(Nc1ccc(-c2cccc(-c3nc4ccc(F)cc4[nH]3)c2)cc1)c1cnn2cccnc12 [TCMDC-136864]")
-12.66
>>> experimental_value("O=C(/C=C/c1ccc(F)cc1)NC1CCC(CCN2CCc3ccc(-n4cccn4)cc3CC2)CC1 (stereo not shown) [TCMDC-140323]")
-53.18
>>> experimental_value("O=C(Cn1c2ccccc2c(=O)c2ccc(Cl)cc21)Nc1ccc(C(F)(F)F)cc1 [TCMDC-125568]")
64.99

Here COc1cccc(Cc2cnc3nc(N)nc(N)c3c2C)c1 [TCMDC-138060] was tested on P. falciparum stage V gametocytes, and its % Inhibition came to -3.76

====

tested on: P. falciparum stage V gametocytes; design: BacTiter-Glo ATP luminescence viability of purified stage V gametocytes in 384-well plates, per cent inhibition versus DMSO; settings: 48 h, 5 µM; inhibitor
Screen size: about 13,000 compounds; about 3,200 (25%) showed an effect of 50% or more. This is one part of the list.
Measure: % Inhibition (%)
Report only the number, with the unit % understood.

Worked cases, answers included:
>>> experimental_value("CCCC(C)C(=O)N1CCOC(COCc2cccc(C(F)(F)F)c2)(c2ccc(Cl)cc2)C1 (stereo not drawn) [TCMDC-141953]")
24.89
>>> experimental_value("COc1ccc2nc(C)cc(Nc3ccc(Oc4ccc(Cl)cc4)c(Cl)c3)c2c1 [TCMDC-123477]")
-13.35
>>> experimental_value("CC1(C)N=C(N)N=C(N)N1OCc1ccc2ccccc2c1 [TCMDC-125513]")
17.08
>>> experimental_value("CCCCCCCCCc1c(C)[nH]c2ccccc2c1=O [TCMDC-137268]")
51.45
>>> experimental_value("CCCCCCCCc1c(C)[nH]c(C)c(C#N)c1=O [TCMDC-137431]")
44.76

Query compound follows.
Memo: COc1ccc2nc3cc(Cl)ccc3c(Nc3ccc(O)c(CN4CC5CCC(CC5)C4)c3)c2c1.Cl [TCMDC-142013] , reported % Inhibition: -78.53
